target.or.test.system: human RORγ-LBD (Homo sapiens, UniProt P51449)
Construct: made in house; host or cells: E. coli (BL-21)
Sequence (P51449 262-518): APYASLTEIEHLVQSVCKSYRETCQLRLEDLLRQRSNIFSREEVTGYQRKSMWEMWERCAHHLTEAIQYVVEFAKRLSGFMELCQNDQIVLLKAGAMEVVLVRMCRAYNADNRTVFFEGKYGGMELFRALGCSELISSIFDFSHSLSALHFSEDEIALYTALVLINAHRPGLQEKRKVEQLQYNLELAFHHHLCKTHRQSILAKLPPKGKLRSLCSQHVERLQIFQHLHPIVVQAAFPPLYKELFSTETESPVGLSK
method.description: ROR gamma coactivator peptide recruitment Alphascreen assay (RORγ-LBD binding to GRIP1 coactivator peptide)
Assay type: biochemical
protocol.conditions: 5 nM human RORγ-LBD, 30 nM 7-β-hydroxycholesterol, 50 nM biotinylated GRIP1 coactivator peptide, overnight incubation at room temperature; read-out: result (pIC50, RORγ coactivator peptide recruitment Alphascreen assay) (converted)
Lab note - cut at 20 nM for IC50: MET if strictly below, NOT MET if not.

Worked set:
Confirm or reject: IC50 of `C[C@@H]1C[C@@H](n2ncc(C(=O)N(CC(=O)c3c(Cl)cccc3Cl)CC3(C(F)(F)F)CC3)c2C(F)(F)F)CC[C@@H]1C(=O)O` lies strictly below 20 nM
MET

State whether 20 nM exceeds IC50 recorded for `Cc1cc(C)c(C(=O)CN(CC(C)(C)C)C(=O)c2cnn([C@H]3CC[C@](C)(C(=O)O)CC3)c2C(F)(F)F)c(Cl)n1` .
NOT MET

Dear colleague, could you confirm whether IC50 of CC1(C)C[C@H](CN(CC(=O)c2c(Cl)cccc2Cl)C(=O)c2cnn([C@H]3CC[C@](C)(C(=O)O)CC3)c2C(F)(F)F)O1 [Example 628] falls below 20 nM? Thanks.
NOT MET

hey, is IC50 for Cc1cc(Cl)c(CCN(CC2(C)CCCCC2)C(=O)c2cnn(C3CCC(C(=O)O)CC3)c2C(F)(F)F)c(Cl)c1 (stereo in doubt) lower than 20 nM or not?
MET

Problem: For the compound `C[C@@H]1C[C@@H](n2ncc(C(=O)N3CC4(CC=CC4)C[C@@H]3Cc3c(Cl)cncc3Cl)c2C(F)(F)F)CC[C@@H]1C(=O)O` , is IC50 under 20 nM?
MET

In the record for `CCC1(CN(CC(=O)c2c(Cl)cc(C)cc2Cl)C(=O)c2cnn([C@H]3CC[C@](C)(C(=O)O)CC3)c2C(F)(F)F)CCC1` , is IC50 less than 20 nM?
MET

I'd appreciate it if you could check whether `Cc1cc(Cl)c(C(=O)CN(CC2CC3(CC3)C2)C(=O)c2cnn([C@H]3CC[C@](C)(C(=O)O)CC3)c2C(F)(F)F)c(Cl)c1` has IC50 smaller than 20 nM.
MET

Determine if `Cc1cc(Cl)c(C(=O)CN(CC2CCCC2)C(=O)c2cnn([C@H]3CC[C@@](C)(C(=O)O)CC3)c2C(F)(F)F)c(Cl)c1` shows IC50 strictly lower than 20 nM.
MET

Answer whether the compound `Cc1cc(Cl)c(C(=O)CN(CC2CCC(C)(C)CC2)C(=O)c2cnn([C@H]3CC[C@H](C(=O)O)CC3)c2C(F)(F)F)c(Cl)c1` has IC50 strictly less than 20 nM
MET

Answer whether the compound `Cc1cc(Cl)c(C(=O)CN(CC2CCC(C)(C)CC2)C(=O)c2cnn([C@H]3CC[C@](C)(C(=O)O)CC3)c2C(F)(F)F)c(Cl)n1` has IC50 strictly less than 20 nM
NOT MET

Continuing:
Does the reported IC50 of `C[C@@H]1C[C@@H](n2ncc(C(=O)N(CC(=O)c3c(Cl)cccc3Cl)CC(C)(C)F)c2C(F)(F)F)CC[C@@H]1C(=O)O` stay below 20 nM?
MET

Is the reported IC50 for C[C@@H]1C[C@H](n2ncc(C(=O)N(CC(=O)c3c(Cl)cncc3Cl)C[C@]34CC[C@H](CC3)O4)c2C(F)(F)F)CC[C@H]1C(=O)O [Example 867] strictly below 20 nM?
NOT MET
